target: human αvβ3 (Homo sapiens, UniProt P05106+P06756); experiment: αvβ3-vitronectin assay (ELISA, inhibition of biotinylated vitronectin binding); settings: plate-coated human αvβ3, biotinylated human vitronectin 0.5 μg/mL, room temperature; read-out: αvβ3 IC50 (Inhibition of the αvβ3-Vitronectin Interaction)
Sequence (P06756 31-889 limits assumed): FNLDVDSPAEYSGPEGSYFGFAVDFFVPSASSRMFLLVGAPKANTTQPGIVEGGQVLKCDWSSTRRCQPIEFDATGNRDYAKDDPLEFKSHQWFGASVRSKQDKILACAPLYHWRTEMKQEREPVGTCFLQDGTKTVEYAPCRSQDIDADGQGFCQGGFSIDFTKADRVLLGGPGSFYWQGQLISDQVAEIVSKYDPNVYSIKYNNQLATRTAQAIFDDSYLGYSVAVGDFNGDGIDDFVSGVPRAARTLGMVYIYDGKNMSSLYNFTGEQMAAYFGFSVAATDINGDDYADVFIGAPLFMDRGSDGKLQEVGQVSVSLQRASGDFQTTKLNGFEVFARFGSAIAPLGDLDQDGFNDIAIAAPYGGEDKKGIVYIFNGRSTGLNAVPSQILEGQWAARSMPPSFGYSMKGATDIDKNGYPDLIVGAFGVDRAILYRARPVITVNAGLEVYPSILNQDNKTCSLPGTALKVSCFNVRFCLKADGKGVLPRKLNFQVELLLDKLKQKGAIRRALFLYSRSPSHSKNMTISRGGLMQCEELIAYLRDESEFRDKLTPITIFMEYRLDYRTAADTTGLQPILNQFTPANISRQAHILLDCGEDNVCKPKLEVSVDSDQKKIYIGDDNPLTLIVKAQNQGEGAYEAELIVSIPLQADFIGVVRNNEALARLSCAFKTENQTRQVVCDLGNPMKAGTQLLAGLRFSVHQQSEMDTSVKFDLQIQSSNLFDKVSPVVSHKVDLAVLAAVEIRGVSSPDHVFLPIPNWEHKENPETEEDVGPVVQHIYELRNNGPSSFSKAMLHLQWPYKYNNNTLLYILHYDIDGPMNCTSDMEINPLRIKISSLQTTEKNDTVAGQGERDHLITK
Sequence (P06756 891-1048 partner limits assumed): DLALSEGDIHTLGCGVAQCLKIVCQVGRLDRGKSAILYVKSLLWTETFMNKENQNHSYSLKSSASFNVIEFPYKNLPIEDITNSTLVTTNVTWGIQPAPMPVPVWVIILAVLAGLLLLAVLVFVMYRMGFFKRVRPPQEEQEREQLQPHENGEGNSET
Sequence (P05106 27-788): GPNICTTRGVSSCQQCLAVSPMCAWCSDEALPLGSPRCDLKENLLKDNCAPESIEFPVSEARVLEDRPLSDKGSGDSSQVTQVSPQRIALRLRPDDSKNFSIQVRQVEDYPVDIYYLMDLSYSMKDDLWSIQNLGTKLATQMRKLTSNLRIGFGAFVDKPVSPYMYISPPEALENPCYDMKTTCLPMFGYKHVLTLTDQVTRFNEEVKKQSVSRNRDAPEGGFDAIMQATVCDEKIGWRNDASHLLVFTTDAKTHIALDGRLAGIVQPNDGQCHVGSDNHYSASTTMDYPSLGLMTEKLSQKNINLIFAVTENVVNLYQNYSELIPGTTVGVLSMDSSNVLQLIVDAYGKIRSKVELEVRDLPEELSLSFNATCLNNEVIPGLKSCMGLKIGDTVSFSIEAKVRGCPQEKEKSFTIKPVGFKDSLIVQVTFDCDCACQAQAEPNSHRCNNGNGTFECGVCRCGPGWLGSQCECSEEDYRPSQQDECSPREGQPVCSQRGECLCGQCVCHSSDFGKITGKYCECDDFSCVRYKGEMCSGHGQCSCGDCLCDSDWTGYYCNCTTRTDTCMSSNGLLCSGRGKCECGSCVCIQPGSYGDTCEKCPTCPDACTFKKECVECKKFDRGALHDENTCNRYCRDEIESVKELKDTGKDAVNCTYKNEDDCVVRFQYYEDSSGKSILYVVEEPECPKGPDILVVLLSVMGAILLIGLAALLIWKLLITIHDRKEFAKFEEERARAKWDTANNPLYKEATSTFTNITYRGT
Counter-ions that a name gives are not always drawn.
endpoint.name: IC50 (nM)

1. N=C(N)NOCCCOc1ccc2c(c1)CN(S(=O)(=O)c1ccccc1)[C@H](C(=O)O)C2 [Example 2, Trifluoroacetic Acid Salt] ... 1100

[I] N=C(N)NOCCCOc1ccc2c(c1)CN(S(=O)(=O)c1ccc3ccccc3c1)[C@H](C(=O)O)C2 [Example 3, Trifluoroacetic Acid Salt]
[II] COc1ccc(OC)c(S(=O)(=O)N2Cc3cc(OCCCONC(=N)N)ccc3C[C@H]2C(=O)O)c1 [Example 1, trifluoroacetic Acid Salt]
Please indicate which item has the smaller measured IC50: I versus II Mark your selection by writing its label. II
(II: 73 nM, I: 500 nM)
